Assay: chemical genetic growth profiling, strain panel (AID 1159580);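 further: tested at 20 µM; growth read once vehicle control cultures reached saturation at 30 °C; 1 = growth at the plate median or of vehicle wells; lower values mean less growth of the strain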
Settings: S. cerevisiae deletion strains, growth OD, locus YGL253W, strain hxk2, active compounds read low
The campaign covered roughly 5,500 compounds. About 2,000 (36%) were called active. Another 18% or so got no clear call; they are omitted. The list shows a part of the results.
I'd be grateful if you could share measured normalized growth for these entries.
Give bare numbers.

Below, 2 compounds whose answers are already recorded.
| Compound | normalized growth |
| --- | --- |
| O=C1C=C2C(=CCOC2O)O1 (stereo not given) | 0.657 |
| CC(CC(O)C1OC1(C)C)[C@@H]1CCC2(C)C3=CCC4C(C)(C)C(=O)CCC4(C)C3CC[C@@]12C (stereo not given in full) | 0.994 |

Dear colleague, could you please provide normalized growth for the compounds listed below?
1. CCCCC1C(=O)N(c2ccccc2)N(c2ccc(O)cc2)C1=O (stereo not given)
2. CCc1cc(C(N)=S)ccn1
3. CO[C@@]1(NC(=O)C(C(=O)O)c2ccc(O)cc2)C(=O)N2C(C(=O)O)=C(CSc3nnnn3C)CO[C@@H]21 (stereo not given in full)

Resp:
1: 1.01; 2: 1.01; 3: 0.996

###

So I've got a bunch of compounds here, and I need their normalized growth values.
Assay: chemical genetic growth profiling, strain panel (AID 1159580);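 further: tested at 20 µM; growth read once vehicle control cultures reached saturation at 30 °C; 1 = growth at the plate median or of vehicle wells; lower values mean less growth of the strain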
Conditions: S. cerevisiae deletion strains, growth OD, locus YKL085W, strain MDH1 (second series), active compounds read low
About 2,000 (36%) of roughly 5,500 compounds were called active. Another 18% or so got no clear call; they are omitted. The list shows a part of the results.
Answers are plain numbers.

Study these solved cases before continuing.
| Compound | normalized growth |
| --- | --- |
| C[C@@H]1CC[C@@]2(OC1)OC1CC3C4CC=C5C[C@@H](O)CC[C@]5(C)C4CC[C@]3(C)C1[C@@H]2C (some centres undefined) | 0.998 |
| CNC(C)C(O)c1ccccc1 (centres undefined) | 1 |
| COc1ccc2c3c1OC1C(O)CC=C4C(C2)N(C)CCC431 (centres undefined) | 1.01 |
| CC(=O)Oc1ccc2c(c1C(C)C)CCC1C(C)(C)CCC[C@]21C (some centres undefined) | 1.01 |
| CC(C)c1c(O)ccc2c1CCC1[C@@](C)(CO)CCC[C@]21C (some centres undefined) | 0.961 |

Would you be so kind as to report normalized growth for each listed record?
1. O=C1C=C2C(=CCOC2O)O1 (centres undefined)
2. Cc1cc(C2CCCCC2)n(O)c(=O)c1
3. CC12CCC3c4ccc(OC(=O)c5ccccc5)cc4CCC3C1CCC2O (centres undefined)
4. Oc1cc2c(cc1O)C1c3ccc(O)c(O)c3OCC1(O)C2 (centres undefined)

Resp:
[0.868, 0.0539, 1, 0.977]

Hi, could you look up normalized growth for each item in my list?
1. C=C[C@H]1CN2CC[C@H]1C[C@@H]2[C@@H](OC(=O)OCC)c1ccnc2ccc(OC)cc12
2. CCN(Cc1ccncc1)C(=O)C(CO)c1ccccc1 (centres undefined)
3. CC(C)c1c(O)ccc2c1CCC1[C@@](C)(C=O)CCC[C@]21C (some centres undefined)
4. CC(=O)OCC1=C(C(=O)O)N2C(=O)[C@@H](NC(=O)Cc3cccs3)[C@H]2SC1
5. NC(N)=NC(=O)c1nc(Cl)c(N)nc1N

Resp:
1.01
0.977
0.583
0.966
1.01
